Every entry's value here was drawn from the supplement of paper PMC12042874.

- assay_comment: amyloid nucleation score (Sup35N fusion, yeast selection) (log enrichment); library NNK3; higher = more nucleation; inactive = no reads after selection;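 further: zero at mode of non-aggregating sequences after 7 days selection at 30°C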
measured_endpoint: amyloid nucleation score

> print(dat)
              substance  reported.measurement
1  TVIRRLYCLNGLVANTSFAV              inactive
2  GCPIFAIFFDLTLCDNARYM                  2.47
3  YIIICLGMWCYSNVGSKTGT              inactive
4        SARIPSLWNHWRIW              inactive
5  MTYAVCGYSIFHKITRTRFG              inactive

I'd like to know its amyloid nucleation score. The substance in question is `PAVQGSKDAASSAERCACQR`
inactive

Also `WGSLMFRVYTKMFEALERVL` ?
inactive

---

Kindly state amyloid nucleation score for each of the entries shown.
- assay_comment: amyloid nucleation score (Sup35N fusion, yeast selection) (log enrichment); library NNK2; higher = more nucleation; inactive = no reads after selection
The response must contain the number and no unit.

I'd like to know its amyloid nucleation score. The substance in question is `VYAMVGVSLACGCVSWKGHV`
4.75

Also `GTCLHCGEIRS` ?
-0.293

Also `LLFMKTFVVRP` ?
0.494

Also `LQVLSFSLWFMVRCMKLLPT` ?
-0.286

Also `YVLELKG` ?
2.75

Also `LINCSSTLITIYSRYNAMYF` ?
5.42

Also `GNRLRIKLL` ?
-0.2

Also `SLLTCLSGMHGWVSIT` ?
-0.13

Also `SFRLISRVLRCNMIQ` ?
-0.881

Also `NNDYFTEGAGKGVTLIGALG` ?
4.44

Also `YNVMHRPGGWDFMYGNWMLG` ?
4.63

Also `TFFMVGNMNNTPSPRPARTK` ?
4.57

Also `QSESVVRHWGMRWR` ?
0.729

Also `LCHEQLCGFRMFCYSHGR` ?
3.58

Also `RNAQPLNGPRSPVSGTDWYS` ?
0.092

Also `VEAIWHWVCYWSGMWSLGPG` ?
3.69

---

- assay_comment: amyloid nucleation score (Sup35N fusion, yeast selection) (log enrichment); library NNK2; higher = more nucleation; inactive = no reads after selection
measured_endpoint: amyloid nucleation score

I'd like to know its amyloid nucleation score. The substance in question is `QCWGMERSERSIRFVTRFFR`
3.5

Also `WRELKSQVDWRLDILSGSYR` ?
0.971

Also `TCVAACTSRRGGISRLLPGN` ?
-0.295

Also `KVGKDTVYKGQSIQSVYLRC` ?
-0.41

Also `RMRCTIMLMTGKRTCYLMRE` ?
-0.216

Also `SLTYRYVHVLC` ?
5.86

Also `SLMIHGHLFRIRVRSLRGRI` ?
-0.714

Also `KVSKTCY` ?
0.497

Also `HHNTCKGM` ?
4.35

---

- assay_comment: amyloid nucleation score (Sup35N fusion, yeast selection) (log enrichment); library NNK3; higher = more nucleation; inactive = no reads after selection
measured_endpoint: amyloid nucleation score

> print(dat)
              substance  reported.measurement
1  RLVLYMPVLLSMVVTNWALL                 0.872
2             VGWTVGYKW              inactive
3  DTYGVVCEVYAILWMNRPLR              inactive
4         LNATKSDCHSLLI              inactive
5  THEVISSFGMVFRNSNFCNS              inactive
6  ASWPNYYWSNSLILFRDKCV                 0.019

I'd like to know its amyloid nucleation score. The substance in question is `ASVRSGYDMVGFGILFGQMS`
inactive

Also `TWQVVNSPYPMRNIPYRSRW` ?
inactive

Also `KRRSTRL` ?
inactive
